system.tested: Zif268 finger 2 variant RGPD finger 2 alpha-helix variant RGPD (full helix only in FIG. 1D) (Mus musculus)
applied.conditions: [none]; apparent Kd interpolated from microarray signal 0.105
measured.parameter: Kd (nM)
Your answer should be a plain number; it is taken to be in nM.

# lookup: Kd of TATATAGCGCAGGCGTATATATCAAGTCAATCGGTCC (double strand) [Zif268 site CAG]
820

###

system.tested: Zif268 finger 2 variant RGPD finger 2 alpha-helix variant RGPD (full helix only in FIG. 1D) (Mus musculus) (UniProt P08046)
applied.conditions: [none]; apparent Kd interpolated from microarray signal 0.406
measured.parameter: pKd
pKd (log units): -log10 of the concentration in mol/L.

# lookup: pKd of TATATAGCGGCTGCGTATATATCAAGTCAATCGGTCC (double strand) [Zif268 site GCT]
6.66
